# Tested on: TO-3-N3 (biotin conjugate)
# ASSAY_NAME: pull-down binding Z-score (relative to library population); higher = stronger binding
# MEASUREMENT_PARAMETERS: RNA library: Library-2
MEASURED_PROPERTY: pull-down binding Z-score
Form rule: numeric answer, no unit written next to it.

// below: answered sequences
In [3]: df
Out[3]:
                             query_sequence                assay_target          measured_property  assay_result
0     GUGUCUGGAGACGCCAGGCAGC [hsa-mir-4323]  TO-3-N3 (biotin conjugate)  pull-down binding Z-score        -0.154
1  GCUUGCUGUUCCUCUCAACAGUAGUCAGGAAGC [hsa-mir-129-1]  TO-3-N3 (biotin conjugate)  pull-down binding Z-score        -0.169
2  UUUUGCUAUUACUUUUAAAGGCAAAA [hsa-mir-548e]  TO-3-N3 (biotin conjugate)  pull-down binding Z-score         0.431
3  UUUACUUUUGGCCUCAAGUCAUUGCAGUAAA [hsa-mir-4796]  TO-3-N3 (biotin conjugate)  pull-down binding Z-score        -0.696
4  CCUCUGUCCUCUGUCCUCUACCUAUAGAGG [hsa-mir-641]  TO-3-N3 (biotin conjugate)  pull-down binding Z-score         0.224
5  UGGAUGUAAUUAUCUUGGCAAACCACGCGAACAAAUAGAUGGUUAUGUCAUGCAUGCA  TO-3-N3 (biotin conjugate)  pull-down binding Z-score        -0.833
6  AAACCUAAUGAAUUAUCUAGAGUAUUAGGUUU [SHAPE_invitro_SARS-CoV-2_Motif_132]  TO-3-N3 (biotin conjugate)  pull-down binding Z-score        -0.888
7  CUCGCUGGGAGGUGUGCUAUCGUCUUCCCCGGGAG [hsa-mir-3689d-1]  TO-3-N3 (biotin conjugate)  pull-down binding Z-score       -0.0907

Asked: Lab note: need pull-down binding Z-score with TO-3-N3 (biotin conjugate) for entry AUAGCACAAAGUCUUAUGGUACUGU [hsa-mir-3169] , please look it up.
Given back: 0.174

Asked: Lab note: need pull-down binding Z-score with TO-3-N3 (biotin conjugate) for entry CUGAUUGUCAUAUGUCGUUUGUGGGAUCCG [hsa-mir-340] , please look it up.
Given back: -0.605

###

# Tested on: TO-3-N3 (biotin conjugate)
# ASSAY_NAME: pull-down binding Z-score (relative to library population); higher = stronger binding
# MEASUREMENT_PARAMETERS: RNA library: Library-2
// reported pull-down binding Z-score per item
Form rule: numeric answer, no unit written next to it.

// below: answered sequences
>>> print(df.to_string())
                             query_sequence                assay_target  assay_result
0     GGAUCCCAGAUCAAACCAGGCCC [hsa-mir-331]  TO-3-N3 (biotin conjugate)         -0.36
1    GUUAGACCUGGCCCUCUGUCUAAU [hsa-mir-429]  TO-3-N3 (biotin conjugate)         0.355
2  GCAUUGAUUUAGAUGAGUGGAGUAUGGCUACAUACUACUUAUUUGAUGAGUCUGGUGAGUUUAAAUUGGCUUCACAUAUGU  TO-3-N3 (biotin conjugate)        -0.215
3  CGCGGAGCAGCGCUGGGUGCAGCGCCUG [hsa-mir-4508]  TO-3-N3 (biotin conjugate)        -0.051

Pending sequence:
Asked: What value of pull-down binding Z-score has been reported for the following sequence? GUUAACUGGUUAUAAGAAACCUGCUUCAAGAGAGCUUAAAGUUAC
Given back: 0.0276

###

# System: G-clamp-N3 (biotin conjugate)
# ASSAY_NAME: pull-down binding Z-score (relative to library population); higher = stronger binding
# MEASUREMENT_PARAMETERS: RNA library: Library-1 (pre-miRNA loops + repeats)
Assign t to entries whose pull-down binding Z-score meets or exceeds 0.8; assign f to the rest.

Observe how each entry below is paired with its result.
>>> print(df.to_string())
                             query_sequence  cat
0      GAAGCGAGAUGUUUGUCUAAA [hsa-mir-6835]    f
1  GGAUGGCCAGGGAAGUAUGCCGGGCCUUGGCAUUUC [hsa-mir-7159]    t
2    CUCACUGCAGAAUUAUUUUGAG [hsa-mir-4524a]    t
3       CUGCUGAAUCUUCAGAAAGG [hsa-mir-3142]    f

Asked: Does pull-down binding Z-score meet or surpass 0.8 for ACACUUCCUAUAUGUAUCCACAUAUAUAUAGU [hsa-mir-568] ?
Given back: f

###

// reported pull-down binding Z-score per item
# Test system: TO-N3-2 (biotin conjugate)
# ASSAY_NAME: pull-down binding Z-score (relative to library population); higher = stronger binding
# MEASUREMENT_PARAMETERS: RNA library: Library-2
Form rule: numeric answer, no unit written next to it.

>>> print(df.to_string())
                             query_sequence          measured_property  assay_result
0  UGGAGGCUGACCUCUUACUUUCGGUCGGUCUUCUU [hsa-mir-4258]  pull-down binding Z-score        -0.435
1  CCUCUGUCCUCUGUCCUCUACCUAUAGAGG [hsa-mir-641]  pull-down binding Z-score         0.141
2  CAGGACACGAGUAACUCGUCUAUCUUCUG [SARS-CoV-2-Conserved-Structured-36_Interval-120-237_Motif_2]  pull-down binding Z-score         0.379
3  UGUCUUUCGAUCAAAACCUGGAUUAUCAAAUAGGAUACAUCUGCAGUGGGGUUUUCGGUGACAACCCGCGUCCCGAAGAUGGAACAGGCA  pull-down binding Z-score         0.432

Asked: What value of pull-down binding Z-score has been reported for the following sequence? GCGUCACGUGCACCCAAGUGACGC [hsa-mir-6786]
Given back: 0.796

Asked: What value of pull-down binding Z-score has been reported for the following sequence? CCCCCAAUUAAAGUAGAUUGGGGG [hsa-mir-3153]
Given back: -1.29

###

# System: TO-N3-2 (biotin conjugate)
# ASSAY_NAME: pull-down binding Z-score (relative to library population); higher = stronger binding
# MEASUREMENT_PARAMETERS: RNA library: Library-2
MEASURED_PROPERTY: pull-down binding Z-score
Form rule: numeric answer, no unit written next to it.

>>> print(df.to_string())
                             query_sequence          measured_property  assay_result
0           UUGAGAAGUAAUUGA [hsa-mir-548ak]  pull-down binding Z-score        -0.239
1  GGUUGGCCGCUGACCCCCGCGGGGCCCCCGGCGGCC [hsa-mir-3195]  pull-down binding Z-score         0.847
2  GUGUACCUCAUGUGUGUACAC [hsa-mir-5692a-2_5692a-1]  pull-down binding Z-score         0.335

Asked: What value of pull-down binding Z-score has been reported for the following sequence? CAGUACAAUUCUGUGAUGCCAUGCGAAAUGCUGGUAUUGUUGGUGUACUG
Given back: -0.171

Asked: What value of pull-down binding Z-score has been reported for the following sequence? GCUGUUGGUACCAAUUUACCUUUACAGC [SHAPE_invitro_SARS-CoV-2_Motif_335]
Given back: -0.561

Asked: What value of pull-down binding Z-score has been reported for the following sequence? GUCACACCUUCGGGAACGUGGUUGAC
Given back: 0.518

Asked: What value of pull-down binding Z-score has been reported for the following sequence? GACUGGACAACAUGAUGAGCCCAAACCAAUC [hsa-mir-5092]
Given back: 0.433

###

# Test system: TO-3-N3 (biotin conjugate)
# ASSAY_NAME: pull-down binding Z-score (relative to library population); higher = stronger binding
# MEASUREMENT_PARAMETERS: RNA library: Library-2
Labels assigned by pull-down binding Z-score range: lowest = under -0.2, middle = from -0.2 up to 0.1, highest = 0.1 and over

Observe how each entry below is paired with its result.
In [3]: df
Out[3]:
                             query_sequence                assay_target      cat
0  GGGGCUGGCUGGGUCUGGUAGUGGGCAUCAGCUGGCCCU [hsa-mir-1207]  TO-3-N3 (biotin conjugate)  highest
1  UGUUUCUUUAUUGAGGACGAAACA [hsa-mir-329-2]  TO-3-N3 (biotin conjugate)   middle
2  UCGUGUUAAAAAUCUGAAUUCUUCUAGAGUUCCUGAUCUUCUGGUCUAAACGAACUAAAUAUUAUAUUAGUUUUUCUGUUUGGAACUUUAAUUUUAGCCAUGG  TO-3-N3 (biotin conjugate)   lowest
3       CGACUCCGUGGCAGAGUUCA [hsa-mir-3666]  TO-3-N3 (biotin conjugate)  highest
4  GCUGCCCCUUUGCUCUCUGGGGUAGC [hsa-mir-3614]  TO-3-N3 (biotin conjugate)  highest

Asked: // bin(item) where item = GGAGGAGGAGGAGGAGGAGGAGGAGGAGGAGGAGGAGGAGGAGGAGGA [G4_r(GGA)16]
Given back: highest

Asked: // bin(item) where item = AGCUUCUUUAUAAGAAGAGGAAACU [hsa-mir-3923]
Given back: highest
